Measured AC50 (Cytochrome P450 1A2 (Homo sapiens))

As a guide, the following entries are already answered.
{"compound": "Cc1c(Br)c([N+](=O)[O-])nn1C(C)C(=O)Nc1nccs1 (stereo not given)", "AC50": "22.4 µM (inconclusive)"}
{"compound": "CSc1nnc2c(n1)OC(C)N(C(=O)c1ccccc1)c1ccccc1-2 (stereo not given)", "AC50": "10 µM (inconclusive)"}
{"compound": "CC(C)C12CN3CC(C(C)C)(CN(C1)C3c1cccnc1)C2=O (stereo not given)", "AC50": "25.1 µM (inconclusive)"}
{"compound": "O=C(O)c1ccccc1N[C@H](c1ccccc1)c1ccc2cccnc2c1O", "AC50": "1.58 µM (inconclusive)"}

Lab note: next compound to report on.
Problem: So what does the record say about AC50 for Clc1ccc(C2=C3CCCCn4c(-c5ccccc5)c[n+](c43)C2)cc1 ?
Solution: 12.6 µM (inconclusive)
